Parameter: pIC50. Scope: all listed entries.
Target: recombinant human NaV1.8 stably transfected HEK cells (Homo sapiens)
Construct: expressed in transfected cells; host or cells: HEK cells, stably transfected
Sequence (Q9Y5Y9 whole entry): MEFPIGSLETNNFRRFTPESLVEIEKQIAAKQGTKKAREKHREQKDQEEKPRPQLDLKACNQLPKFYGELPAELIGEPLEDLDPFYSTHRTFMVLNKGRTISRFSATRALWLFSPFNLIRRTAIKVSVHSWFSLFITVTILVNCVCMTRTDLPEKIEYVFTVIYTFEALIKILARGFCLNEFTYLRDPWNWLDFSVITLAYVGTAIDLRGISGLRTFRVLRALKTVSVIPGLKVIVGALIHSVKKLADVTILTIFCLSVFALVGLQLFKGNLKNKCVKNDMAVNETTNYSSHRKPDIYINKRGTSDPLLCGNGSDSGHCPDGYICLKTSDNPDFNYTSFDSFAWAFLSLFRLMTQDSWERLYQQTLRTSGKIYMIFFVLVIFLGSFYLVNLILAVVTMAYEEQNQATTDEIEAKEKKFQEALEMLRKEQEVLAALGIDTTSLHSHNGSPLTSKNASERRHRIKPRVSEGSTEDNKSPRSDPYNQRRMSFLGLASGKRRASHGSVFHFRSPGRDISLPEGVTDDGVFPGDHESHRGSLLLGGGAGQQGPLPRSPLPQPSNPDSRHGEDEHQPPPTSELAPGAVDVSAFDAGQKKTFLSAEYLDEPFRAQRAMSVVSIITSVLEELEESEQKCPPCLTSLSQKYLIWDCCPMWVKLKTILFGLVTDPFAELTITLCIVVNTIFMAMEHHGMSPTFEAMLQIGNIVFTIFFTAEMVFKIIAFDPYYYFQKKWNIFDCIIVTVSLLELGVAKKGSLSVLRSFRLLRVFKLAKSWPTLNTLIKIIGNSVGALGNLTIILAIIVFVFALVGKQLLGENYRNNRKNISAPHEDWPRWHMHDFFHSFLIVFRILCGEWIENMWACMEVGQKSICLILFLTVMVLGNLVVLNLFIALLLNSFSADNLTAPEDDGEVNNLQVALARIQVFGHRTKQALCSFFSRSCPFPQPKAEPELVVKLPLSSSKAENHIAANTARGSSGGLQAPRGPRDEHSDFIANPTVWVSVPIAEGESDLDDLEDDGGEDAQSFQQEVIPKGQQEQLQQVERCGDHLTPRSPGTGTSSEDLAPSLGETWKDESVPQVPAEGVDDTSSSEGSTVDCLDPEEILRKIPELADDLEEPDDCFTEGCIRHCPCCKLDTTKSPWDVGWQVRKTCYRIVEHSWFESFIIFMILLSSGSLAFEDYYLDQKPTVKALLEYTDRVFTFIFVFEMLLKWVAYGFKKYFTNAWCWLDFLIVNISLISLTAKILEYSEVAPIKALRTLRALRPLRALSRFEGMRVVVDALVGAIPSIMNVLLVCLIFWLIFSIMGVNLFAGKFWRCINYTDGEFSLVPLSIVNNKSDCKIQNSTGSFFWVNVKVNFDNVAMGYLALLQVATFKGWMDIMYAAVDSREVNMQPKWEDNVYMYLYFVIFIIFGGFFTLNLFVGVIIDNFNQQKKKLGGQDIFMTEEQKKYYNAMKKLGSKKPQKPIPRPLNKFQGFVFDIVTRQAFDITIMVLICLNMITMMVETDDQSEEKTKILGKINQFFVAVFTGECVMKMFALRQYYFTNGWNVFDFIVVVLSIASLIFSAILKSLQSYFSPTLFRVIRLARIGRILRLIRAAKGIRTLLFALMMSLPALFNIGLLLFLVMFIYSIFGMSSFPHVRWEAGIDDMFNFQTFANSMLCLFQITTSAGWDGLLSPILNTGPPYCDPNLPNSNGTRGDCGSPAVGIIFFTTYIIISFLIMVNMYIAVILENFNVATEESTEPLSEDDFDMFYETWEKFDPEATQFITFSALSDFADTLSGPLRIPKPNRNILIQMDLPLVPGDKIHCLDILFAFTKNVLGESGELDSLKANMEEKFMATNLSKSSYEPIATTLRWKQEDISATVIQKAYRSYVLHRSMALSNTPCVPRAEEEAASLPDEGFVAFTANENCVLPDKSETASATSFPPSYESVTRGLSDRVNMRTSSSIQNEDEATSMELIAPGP
Test: Compound profiling on NaV1.8, human NaV1.8 cell line, SyncroPatch384PE automated patch clamp assay (Example 115, third set of compounds, Table 27)
Format: cell-based
Conditions: resting state block (P1 measurement), human NaV1.8 HEK cells, Table 27 (third set of compounds), read-out: P1 IC50
pIC50: −log10 of the molar value.

>  <Molecule>
CS(=O)(=O)c1cccc(NC(=O)c2cc(C(F)(F)F)nnc2Oc2ccc(F)cc2O)c1

>  <pIC50>
< 5.30

$$$$

Then this molecule:
Fill in the blank: the reported pIC50 of `Cc1cc(F)ccc1Oc1nnc(C(F)(F)F)cc1C(=O)Nc1ccc(S(N)(=O)=O)cc1` is ____.
6.00 to 6.30
